Origin of the recorded values: ChEMBL document CHEMBL1132845

- study.system: Glutamate NMDA receptor
- experimental.details: Binding affinity for N-methyl-D-aspartate glutamate receptor
IC50: recorded values

Some solved entries appear below for comparison.
O=C(O)Cc1ccc2c(c1)Cc1c-2nc(O)c2nccn12 :: > 10 µM
O=C(O)Cc1ccc2c(c1)Cc1c-2nc(O)c2nc(C(=O)O)cn12 :: > 10 µM

Now, please, on to the next compound.
Incoming: Request the reported IC50 associated with `O=C(O)Cc1cccc2c1Cc1c-2nc(O)c2nccn12`
Outgoing: > 10 µM
